- Measurement Target: human type 3 17β-hydroxysteroid dehydrogenase (Homo sapiens, UniProt P37058)
- Construct: expressed in transfected cells; host or cells: 293 cells, transient transfection; microsomal fraction (100 000×g pellet)
- Sequence (P37058 whole entry): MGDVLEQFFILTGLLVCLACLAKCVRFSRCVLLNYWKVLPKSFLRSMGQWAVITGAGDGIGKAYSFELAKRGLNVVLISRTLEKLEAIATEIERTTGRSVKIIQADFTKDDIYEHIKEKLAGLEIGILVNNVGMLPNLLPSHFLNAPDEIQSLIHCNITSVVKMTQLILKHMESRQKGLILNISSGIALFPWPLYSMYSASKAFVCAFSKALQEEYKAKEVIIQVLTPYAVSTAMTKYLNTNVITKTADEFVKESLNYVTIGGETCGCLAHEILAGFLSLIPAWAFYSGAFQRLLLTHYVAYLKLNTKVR
- Assay Text: Enzymatic assay for type 3 17β-HSD
- Format: biochemical
- Run Conditions: 3.10^−7 M inhibitor
Assign class by % of Inhibition of the Type 3 17β-HSD Activity: not lower than 60% means Fulfilled; lower than 60% means Not fulfilled.

These solved cases illustrate the format of a correct answer.
> print(dat)
                         structure.notation                        measurement.target  classification
1  COCOc1ccc2c(c1)CC[C@@H]1[C@@H]2CC[C@]2(C)C(=O)CC[C@@H]12  human type 3 17β-hydroxysteroid dehydrogenase (Homo sapiens, UniProt P37058)   Not fulfilled
2  CCCCOc1ccc2c(c1)CC[C@@H]1[C@@H]2CC[C@]2(C)C(=O)CC[C@@H]12  human type 3 17β-hydroxysteroid dehydrogenase (Homo sapiens, UniProt P37058)       Fulfilled
3  CSCCSc1ccc2c(c1)CC[C@@H]1[C@@H]2CC[C@]2(C)C(=O)CC[C@@H]12  human type 3 17β-hydroxysteroid dehydrogenase (Homo sapiens, UniProt P37058)       Fulfilled

Data request: Quick check: does COCSc1ccc2c(c1)CC[C@@H]1[C@@H]2CC[C@]2(C)C(=O)CC[C@@H]12 have % of Inhibition of the Type 3 17β-HSD Activity greater than or equal to 60%?
Data returned: Fulfilled

Data request: Next entry: CCOCCOc1ccc2c(c1)CC[C@@H]1[C@@H]2CC[C@]2(C)C(=O)CC[C@@H]12
Data returned: Fulfilled

Data request: Next entry: COCCOc1ccc2c(c1)CC[C@@H]1[C@@H]2CC[C@]2(C)C(=O)CC[C@@H]12
Data returned: Not fulfilled
